Target: T cell α4β7 integrin (Homo sapiens, UniProt P13612+P26010)
Construct: Blood samples were obtained from healthy volunteers' blood donation; endogenous in cells; host or cells: CD4-positive T cells in whole blood of healthy human volunteers
Sequence (P13612 34-1032): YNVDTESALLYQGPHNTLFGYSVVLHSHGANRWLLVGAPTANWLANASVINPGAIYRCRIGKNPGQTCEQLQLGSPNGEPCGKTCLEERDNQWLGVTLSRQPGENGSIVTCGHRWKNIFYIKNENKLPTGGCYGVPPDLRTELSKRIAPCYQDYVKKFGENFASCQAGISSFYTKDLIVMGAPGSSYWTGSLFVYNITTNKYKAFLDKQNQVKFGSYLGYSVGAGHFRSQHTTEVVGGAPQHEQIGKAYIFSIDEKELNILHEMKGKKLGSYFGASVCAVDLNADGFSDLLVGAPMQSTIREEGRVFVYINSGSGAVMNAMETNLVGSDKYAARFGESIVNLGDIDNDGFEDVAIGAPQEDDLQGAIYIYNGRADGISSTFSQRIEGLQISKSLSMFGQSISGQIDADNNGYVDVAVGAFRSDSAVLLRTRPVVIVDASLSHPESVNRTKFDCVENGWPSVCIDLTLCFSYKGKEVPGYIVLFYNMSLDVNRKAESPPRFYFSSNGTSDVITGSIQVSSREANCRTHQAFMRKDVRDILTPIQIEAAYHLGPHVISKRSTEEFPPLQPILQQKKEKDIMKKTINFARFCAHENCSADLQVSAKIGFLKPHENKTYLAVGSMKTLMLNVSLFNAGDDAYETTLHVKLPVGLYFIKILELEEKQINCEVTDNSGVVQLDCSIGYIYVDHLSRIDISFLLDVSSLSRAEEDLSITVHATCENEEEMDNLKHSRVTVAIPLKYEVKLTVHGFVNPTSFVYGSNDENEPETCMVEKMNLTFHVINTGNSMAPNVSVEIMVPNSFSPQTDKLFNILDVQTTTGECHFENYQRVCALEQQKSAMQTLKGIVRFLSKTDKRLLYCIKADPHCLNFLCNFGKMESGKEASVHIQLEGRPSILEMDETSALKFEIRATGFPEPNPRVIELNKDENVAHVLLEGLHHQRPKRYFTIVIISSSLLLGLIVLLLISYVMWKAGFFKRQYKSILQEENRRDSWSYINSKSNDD
Sequence (P26010 20-798): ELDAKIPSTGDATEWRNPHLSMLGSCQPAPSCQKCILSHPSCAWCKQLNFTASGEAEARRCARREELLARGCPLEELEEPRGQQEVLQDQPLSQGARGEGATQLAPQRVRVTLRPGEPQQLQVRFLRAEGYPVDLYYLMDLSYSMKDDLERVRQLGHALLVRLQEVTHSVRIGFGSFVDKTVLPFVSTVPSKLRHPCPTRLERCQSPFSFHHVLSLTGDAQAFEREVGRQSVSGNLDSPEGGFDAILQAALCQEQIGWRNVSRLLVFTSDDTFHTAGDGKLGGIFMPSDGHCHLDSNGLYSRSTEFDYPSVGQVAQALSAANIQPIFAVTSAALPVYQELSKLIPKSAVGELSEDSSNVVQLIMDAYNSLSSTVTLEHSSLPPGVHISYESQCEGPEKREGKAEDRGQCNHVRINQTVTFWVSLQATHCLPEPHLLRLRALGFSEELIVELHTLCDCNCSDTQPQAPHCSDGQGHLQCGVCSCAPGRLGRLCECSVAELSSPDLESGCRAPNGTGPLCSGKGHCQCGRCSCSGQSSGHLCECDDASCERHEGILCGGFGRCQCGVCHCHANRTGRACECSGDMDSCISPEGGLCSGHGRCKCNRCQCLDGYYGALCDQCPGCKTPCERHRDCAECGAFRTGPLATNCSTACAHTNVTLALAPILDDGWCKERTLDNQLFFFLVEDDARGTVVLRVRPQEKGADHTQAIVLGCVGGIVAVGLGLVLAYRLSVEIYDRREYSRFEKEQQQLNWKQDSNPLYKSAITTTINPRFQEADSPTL
Assay: Mouse MAdCAM-1/α4β7 integrin binding inhibitory activity evaluation test in whole human blood
Type: cell-based
Settings: recombinant mouse MAdCAM-1/Fc, CD4 positive cells, flow cytometry
ENDPOINT LABEL: pIC50
Notebook: values listed as pIC50 are -log10 of the concentration (mol/L).

Study these solved cases before continuing.
# COMPOUND, pIC50
data = [
    ("Cn1ccc(=O)n(-c2ccc(C[C@H](NC(=O)c3cc(F)c(NS(=O)(=O)c4ccc(NC(=O)C(C)(C)C)cc4)cc3F)C(=O)O)cn2)c1=O [Compound A53]", 8.74),
    ("Cn1c(=O)n(-c2ccc(C[C@H](NC(=O)c3cc(F)c(NS(=O)(=O)c4ccc(NC(=O)C(C)(C)C)cc4)cc3F)C(=O)O)cn2)c(=O)c2ccncc21 [Compound A26]", 8.62),
]

q: Specify reported pIC50 for the compound shown: Cn1c(=O)n(-c2ccc(C[C@H](NC(=O)c3cc(F)c(NS(=O)(=O)c4ccc(NC(=O)C(C)(C)C)cc4)cc3F)C(=O)O)cc2)c(=O)c2ccncc21 [Compound A1]
a: 8.41

====

pIC50 values, listed per item
Biological target: α4β7 integrin (Homo sapiens, UniProt P13612+P26010)
Construct: a cell line RPMI-8866, which is known to express α4β7 integrin; endogenous in cells; host or cells: RPMI-8866 (human B cell line)
Sequence (P13612 34-1032): as the sequence (P13612 34-1032) above
Sequence (P26010 20-798): as the sequence (P26010 20-798) above
Test: MAdCAM-1/α4β7 integrin binding inhibitory activity evaluation test (RPMI-8866 cells binding to MAdCAM-1/Fc)
Type: cell-based
Conditions: recombinant mouse MAdCAM-1/Fc, no serum
Scale: negative log10 of molar concentration, which is what pIC50 denotes.

q: Please supply the value of reported pIC50 for the item COc1cc2c(=O)n(-c3ccc(C[C@H](NC(=O)c4cc(F)c(NS(=O)(=O)c5ccc(NC(=O)C(C)(C)C)cc5)cc4F)C(=O)O)cc3)c(=O)n(C)c2cn1 [Compound A36]
a: 9.03

q: Output pIC50 of Cc1cc(=O)n(-c2ccc(C[C@H](NC(=O)c3cc(F)c(NS(=O)(=O)c4ccc(NC(=O)C(C)(C)C)cc4)cc3F)C(=O)O)cc2)c(=O)n1C [Compound A46]
a: 9.12

q: Quote pIC50 reported for Cc1c(C)n(C)c(=O)n(-c2ccc(C[C@H](NC(=O)c3cc(F)c(NS(=O)(=O)c4ccc(NC(=O)C5CCOCC5)cc4)cc3F)C(=O)O)cc2)c1=O [Compound A15] please.
a: 9.03

q: Hello, please tell me recorded pIC50 for this one: Cc1c(C)n(C)c(=O)n(-c2ccc(C[C@H](NC(=O)c3cc(F)c(NS(=O)(=O)c4ccc(NC(=O)C(C)(C)C)cc4)cc3F)C(=O)O)cn2)c1=O [Compound A28]
a: 9.25

q: State its pIC50: Cc1c(C)n(C)c(=O)n(-c2ccc(C[C@H](NC(=O)c3cc(F)c(NS(=O)(=O)c4ccc(NC(=O)C(C)(C)C)nc4)cc3F)C(=O)O)cc2)c1=O [Compound A25]
a: 8.96

q: Check the records and state pIC50 for Cc1cc(=O)n(-c2ccc(C[C@H](NC(=O)c3cc(F)c(NS(=O)(=O)c4ccc(NC(=O)C(C)(C)C)cc4)cc3F)C(=O)O)nc2)c(=O)n1C [Compound A72]
a: 8.74

====

Target: α4β1 integrin (Homo sapiens, UniProt P05556+P13612)
Construct: a cell line Jurkat, which is known to express α4β1 integrin; endogenous in cells
Sequence (P13612 34-1032): as the sequence (P13612 34-1032) above
Sequence (P05556 21-798): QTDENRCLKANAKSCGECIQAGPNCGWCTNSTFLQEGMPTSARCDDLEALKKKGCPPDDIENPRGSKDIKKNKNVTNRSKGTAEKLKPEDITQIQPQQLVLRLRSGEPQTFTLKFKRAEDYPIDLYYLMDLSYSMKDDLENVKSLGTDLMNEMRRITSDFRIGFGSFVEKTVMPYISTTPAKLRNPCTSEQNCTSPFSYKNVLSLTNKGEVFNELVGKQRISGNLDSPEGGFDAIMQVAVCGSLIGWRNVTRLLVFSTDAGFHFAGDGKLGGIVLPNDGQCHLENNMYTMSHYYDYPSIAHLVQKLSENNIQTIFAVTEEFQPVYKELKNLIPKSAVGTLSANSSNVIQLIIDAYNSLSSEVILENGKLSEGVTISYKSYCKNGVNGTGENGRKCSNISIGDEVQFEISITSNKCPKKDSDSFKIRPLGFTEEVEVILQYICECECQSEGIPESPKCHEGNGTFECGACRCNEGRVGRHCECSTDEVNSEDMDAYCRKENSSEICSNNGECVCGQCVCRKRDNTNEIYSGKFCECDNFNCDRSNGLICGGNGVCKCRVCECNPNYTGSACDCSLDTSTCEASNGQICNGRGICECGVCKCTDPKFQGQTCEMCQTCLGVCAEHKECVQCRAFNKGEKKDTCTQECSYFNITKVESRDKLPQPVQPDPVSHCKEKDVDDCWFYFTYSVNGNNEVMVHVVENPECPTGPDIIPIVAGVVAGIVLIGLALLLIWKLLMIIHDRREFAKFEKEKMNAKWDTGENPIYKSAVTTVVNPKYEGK
Assay: VCAM-1/α4β1 integrin binding inhibitory activity evaluation test (Jurkat cells binding to VCAM-1/Fc)
Settings: recombinant human VCAM-1/Fc
ENDPOINT LABEL: IC50

Examples with answers:
# SMILES NOTATION, TARGET, IC50
measured = [
    ("Cn1ccc(=O)n(-c2ccc(C[C@H](NC(=O)c3cc(F)c(NS(=O)(=O)c4ccc(NC(=O)C(C)(C)CO)cc4)cc3F)C(=O)O)cn2)c1=O", "α4β1 integrin (Homo sapiens, UniProt P05556+P13612)", "> 31.2 µM"),
    ("Cn1ccc(=O)n(-c2ccc(C[C@H](NC(=O)c3cc(F)c(NS(=O)(=O)c4ccc(NC(=O)C5CCCC5)cc4)cc3F)C(=O)O)cn2)c1=O", "α4β1 integrin (Homo sapiens, UniProt P05556+P13612)", "> 31.2 µM"),
    ("Cn1ccc(=O)n(-c2ccc(C[C@H](NC(=O)c3cc(F)c(NS(=O)(=O)c4ccc(NC(=O)C5(C#N)CC5)cc4)cc3F)C(=O)O)cn2)c1=O", "α4β1 integrin (Homo sapiens, UniProt P05556+P13612)", "> 31.2 µM"),
    ("Cc1cn(C)c(=O)n(-c2ccc(C[C@H](NC(=O)c3cc(F)c(NS(=O)(=O)c4ccc(NC(=O)C5CCCC5)cc4)cc3F)C(=O)O)cn2)c1=O", "α4β1 integrin (Homo sapiens, UniProt P05556+P13612)", "21 µM"),
    ("Cn1cc(C(F)(F)F)c(=O)n(-c2ccc(C[C@H](NC(=O)c3cc(F)c(NS(=O)(=O)c4ccc(NC(=O)C(C)(C)C)cc4)cc3F)C(=O)O)cn2)c1=O", "α4β1 integrin (Homo sapiens, UniProt P05556+P13612)", "19 µM"),
]

// switching to the query compound
q: Read off the recorded IC50 for COC1(C(=O)Nc2ccc(S(=O)(=O)Nc3cc(F)c(C(=O)N[C@@H](Cc4ccc(-n5c(=O)c6ccncc6n(C)c5=O)cc4)C(=O)O)cc3F)cc2)CC1
a: 1.2 µM

====

Molecular target: α4β7 integrin (Homo sapiens, UniProt P13612+P26010)
Construct: a cell line RPMI-8866, which is known to express α4β7 integrin; endogenous in cells; host or cells: RPMI-8866 (human B cell line)
Assay: MAdCAM-1/α4β7 integrin binding inhibitory activity evaluation test in presence of serum
Assay type: cell-based
Conditions: RPMI-8866 cells, recombinant mouse MAdCAM-1/Fc, 50% human serum; read-out: α4β7 Serum Added IC50
Quick rule for you: IC50 under 10 nM gets Met, anything else gets Not met.

# SMILES NOTATION, TARGET, ASSIGNED CATEGORY
data = [
    ("Cc1cn(C)c(=O)n(-c2ccc(C[C@H](NC(=O)c3cc(F)c(NS(=O)(=O)c4cc5cc(NC(=O)C(C)(C)C)ccc5[nH]4)cc3F)C(=O)O)cn2)c1=O", "α4β7 integrin (Homo sapiens, UniProt P13612+P26010)", "Not met"),
    ("Cn1c(=O)n(-c2ccc(C[C@H](NC(=O)c3cc(F)c(NS(=O)(=O)c4ccc(NC(=O)C(C)(C)CO)cc4)cc3F)C(=O)O)cc2)c(=O)c2ccncc21", "α4β7 integrin (Homo sapiens, UniProt P13612+P26010)", "Met"),
    ("Cc1cn(C)c(=O)n(-c2ccc(C[C@H](NC(=O)c3cc(F)c(NS(=O)(=O)c4ccc(NC(=O)C(C)(C)C)cc4)cc3F)C(=O)O)cn2)c1=O", "α4β7 integrin (Homo sapiens, UniProt P13612+P26010)", "Met"),
    ("Cn1c(=O)n(-c2ccc(C[C@H](NC(=O)c3cc(F)c(NS(=O)(=O)c4ccc(NC(=O)C5(C(F)(F)F)CC5)cc4)cc3F)C(=O)O)cc2)c(=O)c2ccncc21", "α4β7 integrin (Homo sapiens, UniProt P13612+P26010)", "Not met"),
    ("Cn1c(=O)n(-c2ccc(C[C@H](NC(=O)c3cc(F)c(NS(=O)(=O)c4ccc(NC(=O)C5CCOCC5)cc4)cc3F)C(=O)O)cc2)c(=O)c2ccncc21", "α4β7 integrin (Homo sapiens, UniProt P13612+P26010)", "Not met"),
]

q: For this compound, is IC50 lower than 10 nM? Cc1c(C)n(C)c(=O)n(-c2ccc(C[C@H](NC(=O)c3cc(F)c(NS(=O)(=O)c4ccc(NC(=O)C5(O)CC5)cc4)cc3F)C(=O)O)cc2)c1=O
a: Not met

q: Strictly below 10 nM: is that where IC50 of Cn1c(=O)n(-c2ccc(C[C@H](NC(=O)c3cc(F)c(NS(=O)(=O)c4ccc(NC(=O)C(C)(C)C)c(F)c4)cc3F)C(=O)O)cc2)c(=O)c2ccncc21 sits?
a: Not met
